# method: qHTS Screen for Compounds that Selectively Target Cancer Cells with p53 Mutations: Cytotoxicity of p53 Null Cells at the Nonpermissive Temperature;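 note: 0% = DMSO only and -100% = full killing by 100 µM tamoxifen; nearly all actives have a fitted effect of over 50% in size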
# conditionDescription: H1299 p53-null (neo) cells, 39C, ATPlite viability, 24 h; series mostly up to 46.1 µM
Hit rate of the full screen: of about 55,000 compounds, about 530 (0.96%) were called active. Inconclusive results (about 7%) are left out. Only a selection was taken, and actives are over-represented in it overall.
Quick reference for activity, negative = cell killing among some compounds

[[record]]
chemicalstring = "Cc1ccc(-c2cc(N)on2)cc1"
measurename = "activity, negative = cell killing"
experimentalvalue = "9.86% [at 1.84 µM] (inactive)"

[[record]]
chemicalstring = "CN(C(=O)c1c(Cl)cnn1C)C12CC3CC(CC(C3)C1)C2"
measurename = "activity, negative = cell killing"
experimentalvalue = "17.1% [at 1.84 µM] (inactive)"

[[record]]
chemicalstring = "CNc1ccc(NC(C)=O)cc1[N+](=O)[O-]"
measurename = "activity, negative = cell killing"
experimentalvalue = "-11.3% [at 1.84 µM] (inactive)"

[[record]]
chemicalstring = "Cc1ccc(NC(=O)c2sc3nc(N)c(C#N)cc3c2N)cc1"
measurename = "activity, negative = cell killing"
experimentalvalue = "9.07% [at 1.84 µM] (inactive)"


If you can, please state the reported activity, negative = cell killing value of `CCOC(=O)/C(C#N)=C/c1ccc(N2CCN(Cc3ccccc3)CC2)cc1` .
2.74% [at 1.84 µM] (inactive)

If you can, please state the reported activity, negative = cell killing value of `O=C(Nc1cc(C(F)(F)F)ccc1Cl)C(=O)N1CCCCC1` .
-3.07% [at 1.84 µM] (inactive)
